target: His-TEV-DYRK1A Kinase domain (aa127-485) (Homo sapiens, UniProt Q13627); construct: His-TEV-DYRK1A Kinase domain (aa127-485); His tag (N); TEV protease cleavage site (N); experiment: Kinase ADP assay (ADP Hunter), DYRK1A kinase domain; assay type: biochemical; conditions: 20 μM ATP
endpoint.name: IC50 (µM)
I only need the number, in µM, no unit after it.

For record "Cc1nc2ccc(-c3cc(N)nc(N)c3)nc2n1C1CCCC1" the listed IC50 is 0.01

For record Cc1nc2ccc(-c3cc(N)nc(N)c3)nc2n1C[C@H](C)Oc1cccc(F)c1 (single isomer, unassigned) the listed IC50 is 0.01

For record "COc1ccc(C)cc1OCCn1c(C)nc2ccc(-c3cc(N)nc(N)c3)nc21" the listed IC50 is 0.049

For record "Cc1nc2ccc(-c3cc(N)nc(N)c3)nc2n1CCC(C)C" the listed IC50 is 0.012

For record "CCC(CC)Cn1c(C)nc2ccc(-c3cc(N)nc(N)c3)nc21" the listed IC50 is 0.013
